Structures can show the parent of a compound that is named as a salt.
property_label: melting point

1. O=C(CCc1ccccc1)N1CCCn2c1nc(-c1ccncc1)cc2=O (as salt: salt) [Compound No 25 of Table 1]; 158 to 160 °C
2. O=C(CCc1ccccc1)N1CCCn2c1nc(-c1ccncc1)cc2=O [Compound No 25 of Table 1]; 230 to 232 °C
3. CC(C(O)c1ccccc1)N1CCCn2c1nc(-c1ccncc1)cc2=O (racemic) [Compound No 74 of Table 1]; 232 to 234 °C
4. CC(C(=O)c1ccccc1)N1CCCn2c1nc(-c1ccncc1)cc2=O (racemic) (as salt: hydrochloride) [Compound No 73 of Table 1]; 194 to 196 °C
